Where these numbers come from: patent US20240067632A1

TARGET SYSTEM: WEE1 (Homo sapiens, UniProt P30291+Q96SW2)
Construct: C-terminal ePL-tagged (DiscoverX, Fremont, CA) full-length WEE1 expression construct; expressed in transfected cells; host or cells: LentiX-HEK293T (Invitrogen), lentiviral transduction; co-expressing GSPT1-GN (G576N, lacking the first 158 amino acids)
TEST: WEE1-ePL degradation assay (LentiX-WEE1-ePL-GSPT1-ND cells, InCELL Hunter luminescence, 4 h)
Type: cell-based
MEASUREMENT CONTEXT: 293T-LentiX WEE1-ePL cells, lower limit of the fit (0 = luciferase inhibitor, Ymax = DMSO control)
Protocol: To generate LentiX-WEE1-ePL-GSPT1-ND cells for the WEE1 degradation assay, LentiX-HEK293T (Invitrogen) were transduced by lentivirus with a C-terminal ePL-tagged (DiscoverX, Fremont, CA) full-length WEE1 expression construct. […] Cells were selected and maintained in complete DMEM media (DMEM, 10% Heat Inactivated FBS, 400 μg/mL Geneticin, and 1 μg/mL puromycin at 37 C and 5% CO2). Cells were passaged every 3-4 days by reseeding 1×10^6 cells in a T150 flask. […]
PROPERTY NAME: 293T-LentiX WEE1-ePL Degradation 4 hr (Ymin)

Known 293T-LentiX WEE1-ePL Degradation 4 hr (Ymin) results, listed for orientation:
query: Check the records and state 293T-LentiX WEE1-ePL Degradation 4 hr (Ymin) for O=C1CCC(N2Cc3cc(O[C@H]4CCN(Cc5ccc6nc(N7CC[C@]78CCOC8)ncc6c5)C4)ccc3C2=O)C(=O)N1 (stereo partly shown)
result: 35.43

query: Check the records and state 293T-LentiX WEE1-ePL Degradation 4 hr (Ymin) for O=C1CCC(N2Cc3cc(O[C@H]4CCN(Cc5ccc6nc(N7CCC78COC8)ccc6c5)C4)ccc3C2=O)C(=O)N1 (stereo partly shown)
result: 35

query: Check the records and state 293T-LentiX WEE1-ePL Degradation 4 hr (Ymin) for Nc1cccc(COc2ccccc2CN2CC[C@H](Oc3ccc4c(c3)CN(C3CCC(=O)NC3=O)C4=O)C2)c1 (stereo partly shown)
result: 92.17

query: Check the records and state 293T-LentiX WEE1-ePL Degradation 4 hr (Ymin) for O=C1CCC(N2Cc3cc(O[C@H]4CCN(Cc5cccc6nccn56)C4)ccc3C2=O)C(=O)N1 (stereo partly shown)
result: 57.26

query: Check the records and state 293T-LentiX WEE1-ePL Degradation 4 hr (Ymin) for COc1cc(C)nc2ccc(CN3CC[C@H](Oc4ccc5c(c4)CN(C4CCC(=O)NC4=O)C5=O)C3)cc12 (stereo partly shown)
result: 44.38

query: Check the records and state 293T-LentiX WEE1-ePL Degradation 4 hr (Ymin) for [2H]c1nc2ccc(CN3CCC(Oc4ccc5c(c4)CN(C4CCC(=O)NC4=O)C5=O)C3)cc2cc1F (stereo not shown)
result: 35

query: Check the records and state 293T-LentiX WEE1-ePL Degradation 4 hr (Ymin) for COc1ccc2cc(CN3CC[C@H](Oc4ccc5c(c4)CN(C4CCC(=O)NC4=O)C5=O)C3)nnc2c1 (stereo partly shown)
result: 28

query: Check the records and state 293T-LentiX WEE1-ePL Degradation 4 hr (Ymin) for O=C1CCC(N2Cc3cc(O[C@H]4CCN(Cc5ccc6nc(N7C[C@H]8CCO[C@H]8C7)ncc6c5)C4)ccc3C2=O)C(=O)N1 (stereo partly shown)
result: 35

query: Check the records and state 293T-LentiX WEE1-ePL Degradation 4 hr (Ymin) for O=C1CCC(N2Cc3cc(O[C@H]4CCN(Cc5ccc6nc(N7C[C@H]8CC[C@@H](C7)O8)ccc6c5)C4)ccc3C2=O)C(=O)N1 (stereo partly shown)
result: 37

query: Check the records and state 293T-LentiX WEE1-ePL Degradation 4 hr (Ymin) for O=C1CCC(N2Cc3cc(O[C@H]4CCN(Cc5ccc6[nH]c(=O)ccc6c5)C4)ccc3C2=O)C(=O)N1 (stereo partly shown)
result: 40.56

1 = O=C1CCC(N2Cc3cc(O[C@H]4CCN(Cc5cc(-c6ccc(C7CCOCC7)cc6)ccn5)C4)ccc3C2=O)C(=O)N1 (stereo partly shown)
2 = O=C1CCC(N2C(=O)c3ccc(O[C@@H]4CCN(Cc5cccc6ncccc56)C4)cc3C2=O)C(=O)N1 (stereo partly shown)
query: Field: lower recorded 293T-LentiX WEE1-ePL Degradation 4 hr (Ymin) (choose 1 or 2 ) Identify your selection by its label.
result: 1
(1: 31, 2: 89.045)

A = O=C1CCC(N2Cc3cc(O[C@H]4CCN(Cc5ccc6nc(N7C[C@@H]8C9CCC(O9)[C@@H]8C7)ncc6c5)C4)ccc3C2=O)C(=O)N1 (stereo partly shown)
B = CC(c1cnc2ccccc2c1)N1CC[C@@H](Oc2ccc3c(c2)CN(C2CCC(=O)NC2=O)C3=O)C1 (stereo in doubt)
query: Field: lower recorded 293T-LentiX WEE1-ePL Degradation 4 hr (Ymin) (choose A or B ) Identify your selection by its label.
result: A

I = C[C@@H]1CC(c2ccc3cc(CN4CC[C@H](Oc5ccc6c(c5)CN(C5CCC(=O)NC5=O)C6=O)C4)ccc3n2)C[C@H](C)O1 (stereo partly shown)
II = O=C1CCC(N2Cc3cc(O[C@H]4CCN(Cc5cc6ncccc6cn5)C4)ccc3C2=O)C(=O)N1 (stereo partly shown)
query: Field: lower recorded 293T-LentiX WEE1-ePL Degradation 4 hr (Ymin) (choose I or II ) Identify your selection by its label.
result: I
